target: recombinant human KRAS^G12D protein (Homo sapiens, UniProt P01116, G12D); test: Temperature-dependent Fluorescence (TdF) KRAS G12D protein binding assay; settings: 6 μM KRAS^G12D protein, 10 μM compound, Sypro Orange; Kd calculated from the fluorescent shift
Sequence (P01116 1-188 isoform P01116-2 G12D): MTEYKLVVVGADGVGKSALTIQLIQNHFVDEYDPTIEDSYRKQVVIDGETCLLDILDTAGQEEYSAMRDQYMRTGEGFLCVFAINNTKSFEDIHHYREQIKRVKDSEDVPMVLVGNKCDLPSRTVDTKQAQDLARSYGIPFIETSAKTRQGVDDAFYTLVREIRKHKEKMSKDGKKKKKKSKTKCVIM
PARAMETER MEASURED: Kd

CN(C)C1CCN(c2nc(N3CC4CCC(C3)N4)c3cc(Cl)c(-c4cc(O)cc5ccccc45)c(F)c3n2)C1 (stereo not drawn) [Compound 52]	> 5 µM
N#Cc1cc2c(N3CC4CCC(C3)N4)nc(OC[C@@]34CCCN3C[C@H](F)C4)nc2c(F)c1-c1cc(O)cc2cccc(Cl)c12 (single isomer, unassigned) [Compound 120]	< 0.5 µM

Given CN1CCOCC1COc1nc(N2CC3CCC(C2)N3)c2cc(Cl)c(-c3cc(O)cc4ccccc34)c(F)c2n1 (stereo not drawn) [Compound 57] , state its recorded Kd.
> 5 µM

Reported Kd, compound CN(C)CC1CCN(c2nc(N3CC4CCC(C3)N4)c3cc(Cl)c(-c4cc(O)cc5ccccc45)c(F)c3n2)CC1 [Compound 53] : ____
> 5 µM

Would you kindly share the measured Kd for N#Cc1cc2c(N3CC4CCC(C3)N4)nc(OC[C@@]34CCCN3C[C@H](F)C4)nc2c(F)c1-c1cc(O)cc2cccc(Cl)c12 [Compound 55] ?
< 0.5 µM

Reported Kd for COc1nc(N2CC3CCC(C2)N3)c2cc(Cl)c(-c3nc(N)cc(C)c3C(F)(F)F)c(F)c2n1 [Compound 144] : what is it?
> 5 µM

* * *

target: Ba/F3_KRAS^G12D cells (Homo sapiens, UniProt P01116, G12D, cells depend on it); experiment: Ba/F3 KRAS G12D cell proliferation assay (CellTiter-Glo); format: cell-based; details: treated for 3 days, cell-titer Glo, cell growth inhibition, read-out: BaF3_KRAS^G12D IC50
Sequence (P01116 whole entry G12D): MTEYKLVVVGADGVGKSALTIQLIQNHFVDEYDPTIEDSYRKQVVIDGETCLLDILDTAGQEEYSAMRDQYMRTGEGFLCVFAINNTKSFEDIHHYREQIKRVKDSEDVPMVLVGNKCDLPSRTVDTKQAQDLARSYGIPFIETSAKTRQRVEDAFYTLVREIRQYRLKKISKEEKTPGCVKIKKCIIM
Overview of recorded GI50 for various compounds

Study these solved cases before continuing.
CCc1cccc2cc(O)cc(-c3c(Cl)cc4c(N5CC6CCC(C5)N6)nc(OC[C@@]56CCCN5C[C@H](F)C6)nc4c3F)c12 (single isomer, unassigned) [Compound 134]	500 to 5000 nM
C#Cc1c(F)ccc2cc(O)cc(-c3c(F)cc4c(N5CC6CCC(C5)N6)nc(OC[C@@]56CCCN5C[C@H](F)C6)nc4c3F)c12 (single isomer, unassigned)	< 500 nM
Cc1cccc2cc(O)cc(-c3c(Cl)cc4c(N5CC6CCC(C5)N6)nc(OC[C@@]56CCCN5C[C@H](F)C6)nc4c3F)c12 (single isomer, unassigned) [Compound 117]	< 500 nM
CCc1c(F)ccc2cc(O)cc(-c3c(Cl)cc4c(N5CC6CCC(C5)N6)nc(OC[C@@]56CCCN5C[C@H](F)C6)nc4c3F)c12 (single isomer, unassigned) [Compound 148]	< 500 nM
CCc1c(F)ccc2cc(O)cc(-c3c(C#N)cc4c(N5CC6CCC(C5)N6)nc(OC[C@@]56CCCN5C[C@H](F)C6)nc4c3F)c12 [Compound 149]	< 500 nM

Let us examine a further case.
Can you share its GI50? I mean this compound: CN1CC2(CCN(c3nc(N4CC5CCC(C4)N5)c4cc(Cl)c(-c5cc(O)cc6ccccc56)c(F)c4n3)CC2)C1
500 to 5000 nM

* * *

Entries annotated with measured pKd
molecular target: recombinant human KRAS^G12D protein (Homo sapiens, UniProt P01116, G12D); assay: Temperature-dependent Fluorescence (TdF) KRAS G12D protein binding assay; details: 6 μM KRAS^G12D protein, 10 μM compound, Sypro Orange; Kd calculated from the fluorescent shift
pKd: −log10 of the molar value.

Cc1cc(N)nc(-c2c(SC(F)(F)F)cc3c(N4CCNC[C@@H]4C)nc(OC[C@@H]4CCCN4C)nc3c2F)c1C(F)(F)F [Compound 136]	< 5.30
CN1CCC[C@H]1COc1nc(-c2cnc(N)s2)c2cc(Cl)c(-c3cc(O)cc4cccc(Cl)c34)c(F)c2n1 [Compound 121]	< 5.30

Given the molecule CN1CC2CN(c3nc(N4CC5CCC(C4)N5)c4cc(Cl)c(-c5cc(O)cc6ccccc56)c(F)c4n3)CC2C1 (stereo not drawn) [Compound 40] , what is its reported pKd?
< 5.30

pKd for Cc1cc(F)c2sc(N)nc2c1-c1c(Cl)cc2c(N3CC4CCC(C3)N4)nc(OC[C@@]34CCCN3C[C@H](F)C4)nc2c1F [Compound 100] ?
> 6.30

Any idea what pKd was measured for N#Cc1cc2c(N3CC4CCC(C3)N4)nc(OC[C@@]34CCCN3C[C@H](F)C4)nc2c(F)c1-c1cc(O)cc2cccc(Cl)c12 (single isomer, unassigned) [Compound 119] ?
< 5.30

Consider the molecule shown here: Oc1cc(-c2c(Cl)cc3c(N4CCNCC4)nc(OC[C@@]45CCCN4C[C@H](F)C5)nc3c2F)c2ccccc2c1 [Compound 126] What is its recorded pKd?
5.30 to 6.30

* * *

molecular target: Ba/F3_KRAS^G12D cells (Homo sapiens, UniProt P01116, G12D, cells depend on it); assay: Ba/F3 KRAS G12D cell proliferation assay (CellTiter-Glo); type: cell-based; conditions: treated for 3 days, cell-titer Glo, cell growth inhibition, read-out: BaF3_KRAS^G12D IC50
Below is a list of entries, each paired with its recorded GI50 value.

Nc1cccc(F)c1-c1c(Cl)cc2c(N3CCNCC3)nc(OCC34CCCN3CCC4)nc2c1F	> 5 µM
CN(C)CC1CCN(c2nc(N3CC4CCC(C3)N4)c3cc(Cl)c(-c4cc(O)cc5ccccc45)c(F)c3n2)CC1	0.5 to 5 µM
CCc1cccc2cc(O)cc(-c3c(Cl)cc4c(N5CC6CCC(C5)N6)nc(OC[C@@]56CCCN5C[C@H](F)C6)nc4c3F)c12 (racemic) [Compound 77]	< 0.5 µM
Nc1nc2c(-c3c(Cl)cc4c(N5CC6CCC(C5)N6)nc(OC[C@@]56CCCN5C[C@H](F)C6)nc4c3F)cc(C(F)(F)F)cc2s1	0.5 to 5 µM
C[C@H]1CNCCN1c1nc(OC[C@@]23CCCN2C[C@H](F)C3)nc2c(F)c(-c3cc(O)cc4ccccc34)c(Cl)cc12	0.5 to 5 µM
CCOc1cc2c(N3CC4CCC(C3)N4)nc(OC[C@@]34CCCN3C[C@H](F)C4)nc2c(F)c1-c1cc(O)cc2cccc(CC)c12 [Compound 157]	0.5 to 5 µM

Name the recorded GI50 for Oc1cc(-c2c(Cl)cc3c(N4CC5CCC(C4)N5)nc(OC[C@@]45CCCN4C[C@H](F)C5)nc3c2F)c2c(Cl)c(F)ccc2c1 (single isomer, unassigned) [Compound 138] .
< 0.5 µM

Entry N#Cc1cc2c(N3CC4CCC(C3)N4)nc(OC[C@@]34CCCN3C[C@H](F)C4)nc2c(F)c1-c1c(O)cccc1F : reported GI50 = ?
> 5 µM

* * *

Known GI50 of a selection of compounds
target: Ba/F3_KRAS^G12D cells (Homo sapiens, UniProt P01116, G12D, cells depend on it); assay: Ba/F3 KRAS G12D cell proliferation assay (CellTiter-Glo); format: cell-based; details: treated for 3 days, cell-titer Glo, cell growth inhibition, read-out: BaF3_KRAS^G12D IC50

Look over these answered cases.
CN1CCC[C@H]1COc1nc(N2CC3CCC(C2)N3)c2cc(Cl)c(-c3c(O)cccc3F)c(F)c2n1	> 5000 nM
CCOc1cc2c(N3CC4CCC(C3)N4)nc(OC[C@@]34CCCN3C[C@H](F)C4)nc2c(F)c1-c1cc(O)cc2ccc(F)c(CC)c12 [Compound 158]	< 500 nM
N#Cc1cc2c(N3CC4CCC(C3)N4)nc(OC[C@@]34CCCN3C[C@H](F)C4)nc2c(F)c1-c1cc(O)cc2cccc(Cl)c12 [Compound 55]	< 500 nM
Oc1cc(-c2c(Cl)cc3c(N4CC5CCC(C4)N5)nc(OCC45CCCN4CC(F)(F)C5)nc3c2F)c2c(Cl)cccc2c1 (stereo not drawn)	500 to 5000 nM
C[C@@H]1CN(c2nc(OCC3CN(C)C3)nc3c(F)c(-c4cc(O)cc5ccccc45)c(Cl)cc23)[C@@H](C)CN1	500 to 5000 nM

Note: attention shifts to another entry.
// GI50 lookup, key: Oc1cc(-c2c(Cl)cc3c(N4CC5CCC(C4)N5)nc(OC[C@]45CCCN4C[C@@H](F)C5)nc3c2F)c2ccccc2c1 (single isomer, unassigned) [Compound 105]
500 to 5000 nM

* * *

target: recombinant human KRAS^G12D protein (Homo sapiens, UniProt P01116, G12D); assay: Temperature-dependent Fluorescence (TdF) KRAS G12D protein binding assay; details: 6 μM KRAS^G12D protein, 10 μM compound, Sypro Orange; Kd calculated from the fluorescent shift
pKd: −log10 of the molar value.
PARAMETER MEASURED: pKd

CNC1CCN(c2nc(OC[C@@H]3CCCN3C)nc3c(F)c(-c4cc(O)cc5cccc(Cl)c45)c(Cl)cc23)C1 (some centres unmarked)	< 5.30
Oc1cccc(F)c1-c1c(Cl)cc2c(N3C4CCC3CNC4)nc(OCC34CCCN3CCC4)nc2c1F	5.30 to 6.30
CN1CCC[C@H]1COc1nc(N2CC3CCC(C2)N3)c2cc(Cl)c(-c3cccc4cccc(Cl)c34)c(F)c2n1	< 5.30
C[C@H]1CNCCN1c1nc(OC[C@@H]2CCCN2C)nc2c(F)c(-c3cc(O)cc4ccccc34)c(Cl)cc12	< 5.30
Nc1cc2ccccc2c(-c2c(Cl)cc3c(N4CC5CCC(C4)N5)nc(OCC45CCCN4CCC5)nc3c2F)n1	5.30 to 6.30

Dear colleague, I am looking for the recorded pKd of the following compound: Cc1cccc2cc(O)cc(-c3c(Cl)cc4c(N5CC6CCC(C5)N6)nc(OC[C@@]56CCCN5C[C@H](F)C6)nc4c3F)c12 [Compound 47]
> 6.30
